Just for reference, the RNAGym collection of RNA variant scans (doi:10.7554/elife.80360) is where these values come from.

self-cleavage values by entry
B1: HDV Ribozyme (parent)
chain: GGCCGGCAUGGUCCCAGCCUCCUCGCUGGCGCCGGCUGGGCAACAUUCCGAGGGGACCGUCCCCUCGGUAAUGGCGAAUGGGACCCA

Variants of: B1
testDescription: self-cleavage, relative activity (ratio to wild type); higher = more cleavage; co-transcriptional
The answer should be a number; do not append a unit.

Worked examples, 3 variants total:
- seqText: "GGCCGGCAUGGUCCCAGCCUCCUCGCUGGCGCCGGCUGGGCAACAUUCCCAGGGGACCGUCCCCUCGGUAAUGGCGAAUGGAACCCA"
  number: 0.364
- seqText: "GGCCGGCAUGGUCCCAGCCUCCUCGCUGGCGCCGGCGGGGCAACAUUCCGAGGGGACCGUCCCCUCGGUAAUGGCGAAUGGGACUCA"
  number: 0.161
- seqText: "GGCCGGCAUGGUCCCAGCCUCCUCGCUGGCGCCGGCUGGGCAACAUUCCGAGGGUACCGUCCCCUCGGUAAUGGCGAAUGGGCCCCA"
  number: 0.554

The measured self-cleavage associated with GGCCGGCAUAGUCCCAGCCUCCUCGCUGGCGCCGGCUGGGCAACAUUCCGAGGGGACCGUCCCCUCGGUAAUUGCGAAUGGGACCCA reads 0.159

The measured self-cleavage associated with GGCCGGCAUGGUCCCAGCCUCAUCGCUGGCGCCGGCUGGGCAAUAUUCCGAGGGGACCGUCCCCUCGGUAAUGGCGAAUGGGACCCA reads 0.0282

The measured self-cleavage associated with GGCCGGCAUGGUCCCAGCCUCCUCGCUGGCGCCGGCUGGGCAACAUUCCGAGGGGACCGUACCCUCGUUAAUGGCGAAUGGGACCCA reads 0.623
